# System: thymidylate synthase (TS) protein
# assayInfo: Immunoblot analysis of TS protein (free and ITC-bound), Odyssey quantitation
# Assay type: cell-based, human
# runConditions: RKO cells, ssiRNA 1 nM, 48 hr; normalized to free TS protein in mock-transfected cells (LF2000) set to 100%; mean ± S.D., 6 experiments
[5FU] = 5-fluorouracil base, d[5FU] 5-fluoro-2'-deoxyuridine (FdU); d = 2'-deoxy (DNA); r = 2'-OH (RNA)
readoutLabel: ITC-Bound TS (%)
Give a bare numeral; the unit % is implied.

Reference set (2 entries):
Write down measured ITC-Bound TS (%) (thymidylate synthase (TS) protein) for this substance. TS6-2xF-dU/dA: ssiRNA with FdU on positions 16 and 18 of the antisense strand; SEQ ID NO: 17 and 18 (chain 1 GGAUAUUGUCAGUCUUUAGGUUUUU; chain 2 CCUAAAGACUGACAAUAUCCAAAAA; chain 1: sugars from the 5' end r20 d5, backbone not given here; chain 2: sugars from the 5' end rrrrrrrrrrrrrrrdrdrrddddd, [5FU] at 16, 18, backbone not given here) 15.4

Write down measured ITC-Bound TS (%) (thymidylate synthase (TS) protein) for this substance. TS6-dA/FdU: TS-targeted ssiRNA with FdU modification of the 3′-end of antisense strand; SEQ ID NO: 11 and 12 (chain 1 GGAUAUUGUCAGUCUUUAGGAAAAA; chain 2 CCUAAAGACUGACAAUAUCCUUUUU; chain 1: sugars from the 5' end r20 d5, backbone not given here; chain 2: sugars from the 5' end r20 d5, [5FU] at 21, 22, 23, 24, 25, backbone not given here) 30.6

Now take the following substance into account.
Write down measured ITC-Bound TS (%) (thymidylate synthase (TS) protein) for this substance. Mis-FdU/dA: control, non-targeted ssiRNA containing 5 FdU residues on the sense strand; SEQ ID NO: 21 and 22 (chain 1 GGAUACUGCCAAUCUCUAGGUUUUU; chain 2 CCUAGAGAUUGGCAGUAUCCAAAAA; chain 1: sugars from the 5' end r20 d5, [5FU] at 21, 22, 23, 24, 25, backbone not given here; chain 2: sugars from the 5' end r20 d5, backbone not given here) 45.6
